These entries and their values trace back to paper PMC10259201.

- Method Notes: Cytotoxicity assay (resazurin)
- Type: cell-based
- Measurement Context: African green monkey, Vero CCL-81 cells; 10 μM, Vero CCL-81, resazurin; read-out: cell viability
Measured Property: viability at 72 h, 10 µM

IN: Provide measured viability at 72 h, 10 µM value, entry: "CCCSc1nc2sc3c(c2c(=O)n1CC)CCc1ccccc1-3"
OUT: > 85%

* * *

- System: PLpro (Severe acute respiratory syndrome coronavirus 2)
- Method Notes: Surface plasmon resonance with immobilized His-tagged PLpro
- Type: binding, SARS-CoV-2
Measured Property: pKd
For clarity, pKd is expressed as the negative log10 of concentration in mol/L.

IN: Under PLpro (Severe acute respiratory syndrome coronavirus 2), report pKd for "C=CCSc1nc2sc3c(c2c(=O)n1CC)CCc1ccccc1-3"
OUT: 5.08
